- Test system: biotinyl-Trp-oxazolone
- Protocol Details: self-aminoacylation, catalytic enhancement (BWO) (fold over background); higher = more active; k-Seq, kA / k0A0; sequences stand for … in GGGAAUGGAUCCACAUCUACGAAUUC…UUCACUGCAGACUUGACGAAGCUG
Fewer inactive variants are shown than the library holds.
self-aminoacylation of 2 or higher: MET. Under 2: NOT MET.

>>> df
                             sequence_chain  assigned_label
0  AUUCUCCCAGGUCAUCGGGUG [Fam2.2 aminoacylation ribozyme variant]             MET
1  AUUCAGCUAGGUCAUCAGGUG [Fam2.2 aminoacylation ribozyme variant]             MET
2  CCACCCUGCAAGCAAUCGGUC [Fam1B.1 aminoacylation ribozyme variant]         NOT MET
3  AAGUUUGCUAAUUGUCCCAAG [Fam3.1 aminoacylation ribozyme variant]         NOT MET
4  CUACAACAAACAAUCGGUCUG [Fam1A.1 aminoacylation ribozyme variant]         NOT MET
5  AUUACCCGGGUCAUCGAGUAA [Fam2.1 aminoacylation ribozyme variant]             MET

Query :: Quick check: does CUAAUUCAAUCAAUCGGUCUG [Fam1A.1 aminoacylation ribozyme variant] have self-aminoacylation greater than or equal to 2?
Result :: MET

Query :: Quick check: does AAGUUUGCUAGGAGUCGCAAG [Fam3.1 aminoacylation ribozyme variant] have self-aminoacylation greater than or equal to 2?
Result :: NOT MET

====

- Test system: biotinyl-Phe-oxazolone
- Protocol Details: self-aminoacylation, catalytic enhancement (BFO) (fold over background); higher = more active; k-Seq, kA / k0A0; sequences stand for … in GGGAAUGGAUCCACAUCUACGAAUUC…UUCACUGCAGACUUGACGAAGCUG
Fewer inactive variants are shown than the library holds.
Result Type: self-aminoacylation
Answer with the value's number alone.

>>> df
                             sequence_chain          result_type  value
0  AUUCCCCUAAGUCAUCGGGUG [Fam2.2 aminoacylation ribozyme variant]  self-aminoacylation    498
1  AAGUUUGCUAAUAGUCUGAAG [Fam3.1 aminoacylation ribozyme variant]  self-aminoacylation   3.77
2  CUACUACAAACAAUCGGUCUU [Fam1A.1 aminoacylation ribozyme variant]  self-aminoacylation  0.658
3  CCACACAUCAAGCCAUCGGUC [Fam1B.1 aminoacylation ribozyme variant]  self-aminoacylation   1.07
4  AAGUUUGCUAAUAGUCUAAAG [Fam3.1 aminoacylation ribozyme variant]  self-aminoacylation   5.62

Form field self-aminoacylation for item CUACUUCAAACAAUCGGAGUG [Fam1A.1 aminoacylation ribozyme variant] on biotinyl-Phe-oxazolone: 6.37

Form field self-aminoacylation for item CUACUUAAAACAAGCGGUCUG [Fam1A.1 aminoacylation ribozyme variant] on biotinyl-Phe-oxazolone: 0.744

Form field self-aminoacylation for item CAUCUUCAAACAAUCGGUCUG [Fam1A.1 aminoacylation ribozyme variant] on biotinyl-Phe-oxazolone: 47

Form field self-aminoacylation for item AUUACCCUAGUCAUCGAGUCA [Fam2.1 aminoacylation ribozyme variant] on biotinyl-Phe-oxazolone: 0.47

Form field self-aminoacylation for item AUGACCCUGGUCAUCUAGUGA [Fam2.1 aminoacylation ribozyme variant] on biotinyl-Phe-oxazolone: 63.5

Form field self-aminoacylation for item AUUACCCUGGUCAAGGAGUGA [Fam2.1 aminoacylation ribozyme variant] on biotinyl-Phe-oxazolone: 3.96

Form field self-aminoacylation for item CGACACUUAAAGCAAUCGGUC [Fam1B.1 aminoacylation ribozyme variant] on biotinyl-Phe-oxazolone: 1.13

Form field self-aminoacylation for item ACUACCCUGGUCAUCAAGUGA [Fam2.1 aminoacylation ribozyme variant] on biotinyl-Phe-oxazolone: 5.04

====

- Test system: biotinyl-Leu-oxazolone
- Protocol Details: self-aminoacylation, catalytic enhancement (BLO) (fold over background); higher = more active; k-Seq, kA / k0A0; sequences stand for … in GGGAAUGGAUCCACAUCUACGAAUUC…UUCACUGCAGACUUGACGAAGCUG
Variants at the floor of the assay were thinned out.
Result Type: self-aminoacylation
Answer with the value's number alone.

                             sequence_chain  value
0  GUUCCCCUGGUCAUCGAGUGA [Fam2.1 aminoacylation ribozyme variant]   6.48
1  AUUACCCUGGUCAUAGAGUGA [Fam2.1 aminoacylation ribozyme variant]    9.8
2  AAGUUUGCUAAAAGUUGCAAG [Fam3.1 aminoacylation ribozyme variant]  0.968
3  CCUCUUCAAACAAUCGGUCUG [Fam1A.1 aminoacylation ribozyme variant]   2.36
4  UUUCACCUAGGUUAUCGGGUG [Fam2.2 aminoacylation ribozyme variant]   3.72
5  CCACACUUCAAGAAAGCGGUC [Fam1B.1 aminoacylation ribozyme variant]  0.784

Value of measured self-aminoacylation for the entry CUACUUCAAAGAAUCCGUCUG [Fam1A.1 aminoacylation ribozyme variant] : 1.07

Value of measured self-aminoacylation for the entry AUUACCCUGGUCAUCAAGCGA [Fam2.1 aminoacylation ribozyme variant] : 0.895

Value of measured self-aminoacylation for the entry AAGUUUGCUAAUAGCGGCAAG [Fam3.1 aminoacylation ribozyme variant] : 0.575

Value of measured self-aminoacylation for the entry AUUACCCUGGUCAUCGCGUGA [Fam2.1 aminoacylation ribozyme variant] : 20.3

Value of measured self-aminoacylation for the entry AUACACCUGGGUCAUCGGGUG [Fam2.2 aminoacylation ribozyme variant] : 4.41

Value of measured self-aminoacylation for the entry AUUCCCCUAGGUCAUCGGCUG [Fam2.2 aminoacylation ribozyme variant] : 7.58

Value of measured self-aminoacylation for the entry CUUUUUCAAACAAUCGGUCUG [Fam1A.1 aminoacylation ribozyme variant] : 0.89

Value of measured self-aminoacylation for the entry GCACACUUAAAGCAAUCGGUC [Fam1B.1 aminoacylation ribozyme variant] : 1.15

Value of measured self-aminoacylation for the entry CUACUUCCUACAAUCGGUCUG [Fam1A.1 aminoacylation ribozyme variant] : 0.671

====

- Test system: biotinyl-Ile-oxazolone
- Protocol Details: self-aminoacylation, catalytic enhancement (BIO) (fold over background); higher = more active; k-Seq, kA / k0A0; sequences stand for … in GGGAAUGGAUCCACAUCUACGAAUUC…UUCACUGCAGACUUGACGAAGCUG
Variants at the floor of the assay were thinned out.
Result Type: self-aminoacylation
Answer with the value's number alone.

In [3]: df
Out[3]:
                             sequence_chain  value
0  CUUCUUCAAACAAUCGUUCUG [Fam1A.1 aminoacylation ribozyme variant]   0.68
1  AAGUUUGCUAAUCGUUGCAAG [Fam3.1 aminoacylation ribozyme variant]  0.834
2  AUUACCAUGGUCAUCGUGUGA [Fam2.1 aminoacylation ribozyme variant]    1.9

Value of measured self-aminoacylation for the entry CUACUUUAAACAAUCGGGCUG [Fam1A.1 aminoacylation ribozyme variant] : 1.2

Value of measured self-aminoacylation for the entry AUUCACCUCGGUCAUCGGGUA [Fam2.2 aminoacylation ribozyme variant] : 2.96

Value of measured self-aminoacylation for the entry AUUGACCUGGUCAUCGAGUGA [Fam2.1 aminoacylation ribozyme variant] : 3.66

Value of measured self-aminoacylation for the entry AUUACCCUAGUCACCGAGUGA [Fam2.1 aminoacylation ribozyme variant] : 2.89

Value of measured self-aminoacylation for the entry CCACACUUCAAGCGAUCGCUC [Fam1B.1 aminoacylation ribozyme variant] : 2.62

Value of measured self-aminoacylation for the entry AUUAGCCUGAUCAUCGAGUGA [Fam2.1 aminoacylation ribozyme variant] : 4.82

Value of measured self-aminoacylation for the entry AUUAACCGAGGUCAUCGGGUG [Fam2.2 aminoacylation ribozyme variant] : 4.6

Value of measured self-aminoacylation for the entry GUUACCCUGGUCAUCGAGUUA [Fam2.1 aminoacylation ribozyme variant] : 4.48

Value of measured self-aminoacylation for the entry CUACUUCAACCAAUCGGUCUC [Fam1A.1 aminoacylation ribozyme variant] : 0.904

Value of measured self-aminoacylation for the entry CCACACUUCAAUCAAUUGGUC [Fam1B.1 aminoacylation ribozyme variant] : 0.598

Value of measured self-aminoacylation for the entry ACGUUUGCUAAUAGUUGCAAG [Fam3.1 aminoacylation ribozyme variant] : 1.45

Value of measured self-aminoacylation for the entry AUUCACCUAGGUCAUCGGCCG [Fam2.2 aminoacylation ribozyme variant] : 3.35

Value of measured self-aminoacylation for the entry CAGUUUGCUAAUAGUCACAAG [Fam3.1 aminoacylation ribozyme variant] : 1.04

Value of measured self-aminoacylation for the entry CCGCACUUCAAGCAAUCGGCC [Fam1B.1 aminoacylation ribozyme variant] : 1.97

Value of measured self-aminoacylation for the entry CCACACUUCCAGCAACCGGUC [Fam1B.1 aminoacylation ribozyme variant] : 1.15

Value of measured self-aminoacylation for the entry AUUACCCUUGUCAUCGAGCGA [Fam2.1 aminoacylation ribozyme variant] : 1.49

Where do the numbers come from? From the supplement of paper PMC9233669.
